The values you see were collected from the supplement of paper PMC9170038.

- Test system: MS2 coat protein
- MEASUREMENT_DESCRIPTION: apparent KD of MS2 coat protein; designed switch direction (-1 OFF switch, 1 ON switch): -1; higher = weaker reporter binding
- EXPERIMENTAL_PARAMETERS: input ligand: FMN 200 uM
REPORTED_PROPERTY: apparent KD of MS2 coat protein (µM)
Answers are plain numbers, in µM.

Reference set (2 entries):
>  <ORDERED_RESIDUES>
AAGCGGUGAGGAUAUACAUGAGGAUCACCCAUGUGUAUGCAGAGGGCGCGGUGUUGGUGUAGAAGGCACUGGGA [EX3 B.10] (Eterna round: R97, puzzle: Exclusion 3)

>  <ASSAYED_TARGET>
MS2 coat protein

>  <apparent KD of MS2 coat protein (µM)>
0.023

$$$$
>  <ORDERED_RESIDUES>
GCUUGUGCCCUAGGAUAUCGCCCAGCCAAUGGAUGAGAAGGAGGCGGGUGAAACAUGAGGAUCACCCAUGUAAACGCACAGGCG [Erdiusbi] (Eterna round: R96, puzzle: Exclusion NG 1)

>  <ASSAYED_TARGET>
MS2 coat protein

>  <apparent KD of MS2 coat protein (µM)>
0.189

$$$$

Which measured apparent KD of MS2 coat protein value corresponds to UUAAAUCAUGUAGGAUAUGCGUGGCGAAGCUAUGCAGAAGGACAUGAGGAUCACCCAUGUGCUGCGGUCUGCGUACAGAUCGCA [JL ENG1 1.06] (Eterna round: R96, puzzle: Exclusion NG 1) ?
0.0876
